I'd be grateful if you could share measured pKd for these entries.
# Target entity: HLA-A*02:06
# Experiment: IEDB peptide-MHC binding, purified MHC/competitive/radioactivity; filed as Kd, often an IC50 or EC50 that approximates it; bounds were set here for any values at or beyond the usual limits of such assays
# Recorded conditions: source organism: Vaccinia virus WR
Worth noting: pKd values are minus log10 of concentrations stated in mol/L.

query: pKd lookup needed for KASTISWMM , thanks.
result: 6.10

query: pKd lookup needed for YTKHSMLTNA , thanks.
result: 5.13

query: pKd lookup needed for KTIISEEYL , thanks.
result: 6.82

###

# Target entity: HLA-A*33:01
# Experiment: IEDB peptide-MHC binding, purified MHC/competitive/radioactivity; filed as Kd, often an IC50 or EC50 that approximates it; bounds were set here for any values at or beyond the usual limits of such assays
# Recorded conditions: source organism: Vaccinia virus WR
I'd be grateful if you could share measured Kd for these entries.

query: Kd lookup needed for FVSLVKKNK , thanks.
result: ≥ 33.6 µM

query: Kd lookup needed for QTIASKKDK , thanks.
result: ≥ 77.7 µM

query: Kd lookup needed for ILFMEMFFDY , thanks.
result: ≥ 64.3 µM

query: Kd lookup needed for TSDSKSIENK , thanks.
result: ≥ 34.2 µM

query: Kd lookup needed for RSLQTIASKK , thanks.
result: ≥ 70 µM

query: Kd lookup needed for TSPGEIKPK , thanks.
result: ≥ 77.7 µM

query: Kd lookup needed for LSIVVDINK , thanks.
result: ≥ 77.7 µM

query: Kd lookup needed for YFSKQTQTY , thanks.
result: ≥ 30.4 µM

query: Kd lookup needed for RSLQTIASK , thanks.
result: ≥ 77.7 µM

query: Kd lookup needed for ISSRVDRYSK , thanks.
result: ≥ 70 µM

query: Kd lookup needed for ITLDTMDDMK , thanks.
result: ≥ 70 µM

query: Kd lookup needed for ALDEKWNEFK , thanks.
result: ≥ 70 µM

query: Kd lookup needed for AQYKCVTIKY , thanks.
result: ≥ 21.9 µM

query: Kd lookup needed for SLELIIIHTK , thanks.
result: ≥ 53.4 µM

query: Kd lookup needed for HMVRCCKVY , thanks.
result: ≥ 45.8 µM

query: Kd lookup needed for PSTDVNKQNK , thanks.
result: ≥ 70 µM

query: Kd lookup needed for ESRDRKWLYY , thanks.
result: ≥ 70 µM

query: Kd lookup needed for RMLDTSEKY , thanks.
result: ≥ 68.1 µM

query: Kd lookup needed for YALINLVQY , thanks.
result: ≥ 77.7 µM

###

I'd be grateful if you could share measured pKd for these entries.
# Target entity: HLA-A*24:02
# Experiment: IEDB peptide-MHC binding, purified MHC/competitive/radioactivity; filed as Kd, often an IC50 or EC50 that approximates it; bounds were set here for any values at or beyond the usual limits of such assays
# Recorded conditions: source organism: SARS coronavirus Tor2
Worth noting: pKd values are minus log10 of concentrations stated in mol/L.

query: pKd lookup needed for RYNTRGNTY , thanks.
result: 5.75

query: pKd lookup needed for RYNLPTMCDI , thanks.
result: 6.22

query: pKd lookup needed for VFQSATKII , thanks.
result: 9.68

###

# Target entity: HLA-A*68:01
# Experiment: IEDB peptide-MHC binding, purified MHC/competitive/radioactivity; filed as Kd, often an IC50 or EC50 that approximates it; bounds were set here for any values at or beyond the usual limits of such assays
# Recorded conditions: source organism: Vaccinia virus WR
Categories are defined by ranges of Kd, namely low (below 200 nM), medium (200 nM to below 900 nM), high (900 nM or more)

query: Please report the category associated with PSTDVNKQNK , nothing else.
result: high

query: Please report the category associated with HIKTIAVSVY , nothing else.
result: high

query: Please report the category associated with LVFNSISAR , nothing else.
result: low

query: Please report the category associated with YQSFLFWFLK , nothing else.
result: low

query: Please report the category associated with SINVTIPEQY , nothing else.
result: high

query: Please report the category associated with ILFMEMFFDY , nothing else.
result: medium

query: Please report the category associated with FIDVHIPKFK , nothing else.
result: low

query: Please report the category associated with VTDLENRLK , nothing else.
result: high

query: Please report the category associated with HMVRCCKVY , nothing else.
result: medium

query: Please report the category associated with HTSVSAKQLR , nothing else.
result: low

query: Please report the category associated with SLNRQTVSR , nothing else.
result: medium

query: Please report the category associated with MLNRVQILMK , nothing else.
result: medium

query: Please report the category associated with TSPGEIKPK , nothing else.
result: high

query: Please report the category associated with LSKIPYLRNY , nothing else.
result: high

query: Please report the category associated with QTIASKKDK , nothing else.
result: medium

query: Please report the category associated with YALINLVQY , nothing else.
result: high

query: Please report the category associated with FVSLVKKNK , nothing else.
result: medium

query: Please report the category associated with LTTHCTKLR , nothing else.
result: medium

query: Please report the category associated with ISSRVDRYSK , nothing else.
result: medium

query: Please report the category associated with RSLQTIASK , nothing else.
result: low

query: Please report the category associated with NTTYDFLARK , nothing else.
result: low

query: Please report the category associated with DTQMRTPLHK , nothing else.
result: high

query: Please report the category associated with MSHLKVALY , nothing else.
result: low

query: Please report the category associated with ITLDTMDDMK , nothing else.
result: low

query: Please report the category associated with SMFWDGMDY , nothing else.
result: low

query: Please report the category associated with NSISARALK , nothing else.
result: low

query: Please report the category associated with VMHINSPFK , nothing else.
result: low

query: Please report the category associated with SLELIIIHTK , nothing else.
result: high

query: Please report the category associated with ILMIFISSFL , nothing else.
result: high

query: Please report the category associated with ISRDELWAR , nothing else.
result: high

query: Please report the category associated with AQYKCVTIKY , nothing else.
result: high

query: Please report the category associated with RMLDTSEKY , nothing else.
result: high

query: Please report the category associated with CFKEASFSKR , nothing else.
result: high

###

# Target entity: HLA-A*11:01
# Experiment: IEDB peptide-MHC binding, purified MHC/competitive/radioactivity; filed as Kd, often an IC50 or EC50 that approximates it; bounds were set here for any values at or beyond the usual limits of such assays
# Recorded conditions: source organism: Vaccinia virus WR
I'd be grateful if you could share measured pKd for these entries.
Worth noting: pKd values are minus log10 of concentrations stated in mol/L.

query: pKd lookup needed for ILFMEMFFDY , thanks.
result: 6.92

query: pKd lookup needed for ILKINSVKYY , thanks.
result: 4.87

query: pKd lookup needed for SINVTIPEQY , thanks.
result: 6.11

###

I'd be grateful if you could share measured pKd for these entries.
# Target entity: HLA-A*31:01
# Experiment: IEDB peptide-MHC binding, purified MHC/competitive/radioactivity; filed as Kd, often an IC50 or EC50 that approximates it; bounds were set here for any values at or beyond the usual limits of such assays
# Recorded conditions: source organism: SARS coronavirus Tor2
Worth noting: pKd values are minus log10 of concentrations stated in mol/L.

query: pKd lookup needed for WVFGSTMNNK , thanks.
result: 5.23

query: pKd lookup needed for ATSTGNYNYK , thanks.
result: 7.16

query: pKd lookup needed for SADASTFLK , thanks.
result: 7.00

query: pKd lookup needed for QLEQPYVFIK , thanks.
result: 4.95

###

# Target entity: HLA-B*08:01
# Experiment: IEDB peptide-MHC binding, purified MHC/competitive/radioactivity; filed as Kd, often an IC50 or EC50 that approximates it; bounds were set here for any values at or beyond the usual limits of such assays
# Recorded conditions: source organism: Vaccinia virus WR
Experimental endpoint: Kd (nM)
Write the answer as a number in nM, unit excluded.

query: Kd lookup needed for NPSFKRQII , thanks.
result: 19.5

query: Kd lookup needed for RLKTRIRNL , thanks.
result: 0.694

query: Kd lookup needed for KPAVRFAIL , thanks.
result: 1430

query: Kd lookup needed for MMKWIISIL , thanks.
result: 1.28

###

I'd be grateful if you could share measured pKd for these entries.
# Target entity: HLA-A*24:02
# Experiment: IEDB peptide-MHC binding, purified MHC/competitive/radioactivity; filed as Kd, often an IC50 or EC50 that approximates it; bounds were set here for any values at or beyond the usual limits of such assays
# Recorded conditions: source organism: SARS coronavirus Tor2
pKd: −log10 of the molar value.

query: Find the measured pKd: item DNAFNCTFEY , target or system HLA-A*24:02.
result: ≤ 4.15

query: Find the measured pKd: item CKDGHVETFY , target or system HLA-A*24:02.
result: ≤ 4.15

query: Find the measured pKd: item LTNDNTSRY , target or system HLA-A*24:02.
result: ≤ 4.11

query: Find the measured pKd: item RVDFCGKGY , target or system HLA-A*24:02.
result: ≤ 4.11
